System Name: GCN2 (Homo sapiens (Human))
Sequence (Q9P2K8 whole entry): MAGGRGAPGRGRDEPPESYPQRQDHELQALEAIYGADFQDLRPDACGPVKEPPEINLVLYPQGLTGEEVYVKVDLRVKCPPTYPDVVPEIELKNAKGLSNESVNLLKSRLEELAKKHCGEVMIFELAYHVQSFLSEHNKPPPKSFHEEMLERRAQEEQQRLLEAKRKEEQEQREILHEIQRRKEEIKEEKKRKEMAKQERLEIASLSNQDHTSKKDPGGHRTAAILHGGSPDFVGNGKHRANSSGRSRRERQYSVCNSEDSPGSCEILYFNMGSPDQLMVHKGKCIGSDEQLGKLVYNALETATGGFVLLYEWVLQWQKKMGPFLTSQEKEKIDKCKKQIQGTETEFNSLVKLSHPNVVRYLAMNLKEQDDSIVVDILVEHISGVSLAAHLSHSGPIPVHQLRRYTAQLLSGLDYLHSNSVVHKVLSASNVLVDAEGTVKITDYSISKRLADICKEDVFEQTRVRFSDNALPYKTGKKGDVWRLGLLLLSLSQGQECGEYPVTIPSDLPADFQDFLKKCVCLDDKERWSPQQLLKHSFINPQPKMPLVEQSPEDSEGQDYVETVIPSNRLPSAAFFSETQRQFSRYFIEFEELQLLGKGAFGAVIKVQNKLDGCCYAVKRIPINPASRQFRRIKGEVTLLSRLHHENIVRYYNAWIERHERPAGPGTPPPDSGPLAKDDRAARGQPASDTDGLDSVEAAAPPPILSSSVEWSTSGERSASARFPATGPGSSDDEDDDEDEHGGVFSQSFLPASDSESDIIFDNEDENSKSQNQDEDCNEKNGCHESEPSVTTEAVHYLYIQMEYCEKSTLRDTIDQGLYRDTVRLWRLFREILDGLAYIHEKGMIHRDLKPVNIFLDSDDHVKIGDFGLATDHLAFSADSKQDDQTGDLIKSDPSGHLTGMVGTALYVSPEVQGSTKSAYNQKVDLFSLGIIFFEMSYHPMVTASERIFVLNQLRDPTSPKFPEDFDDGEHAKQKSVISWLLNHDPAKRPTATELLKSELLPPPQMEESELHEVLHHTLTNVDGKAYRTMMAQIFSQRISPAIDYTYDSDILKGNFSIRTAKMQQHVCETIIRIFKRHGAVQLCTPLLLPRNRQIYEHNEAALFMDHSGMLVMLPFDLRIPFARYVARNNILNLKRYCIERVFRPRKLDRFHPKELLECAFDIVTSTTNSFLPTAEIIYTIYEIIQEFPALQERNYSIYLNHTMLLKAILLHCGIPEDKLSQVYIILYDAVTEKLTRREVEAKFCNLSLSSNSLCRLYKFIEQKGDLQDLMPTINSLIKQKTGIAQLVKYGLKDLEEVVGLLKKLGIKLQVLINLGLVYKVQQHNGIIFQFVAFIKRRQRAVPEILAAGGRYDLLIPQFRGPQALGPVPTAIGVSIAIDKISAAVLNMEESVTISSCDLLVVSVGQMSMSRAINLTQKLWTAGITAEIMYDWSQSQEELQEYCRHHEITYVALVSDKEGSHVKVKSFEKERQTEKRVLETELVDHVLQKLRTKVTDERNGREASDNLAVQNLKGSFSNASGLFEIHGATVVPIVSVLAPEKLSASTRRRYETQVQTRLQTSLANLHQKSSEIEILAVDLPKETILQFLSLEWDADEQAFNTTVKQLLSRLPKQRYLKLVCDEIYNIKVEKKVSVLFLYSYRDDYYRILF
Protocol Details: TR-FRET biochemical assay for inhibition of GCN2
Conditions Used: GCN2 2 nM, 100 nM GFP-eIF2a, 150 μM ATP, TR-FRET
Readout Name: IC50

Smiles Notation: COc1ncc(C#N)cc1S(=O)(=O)Nc1ccc(F)c(-c2cn3cnc(-c4ncc[nH]4)c3cn2)c1F
Readout Name: IC50
Val: < 50 nM
--
Smiles Notation: Cc1nnc(-c2ncn3c2CC[C@@H](c2c(F)ccc(NS(=O)(=O)c4cc(Cl)cnc4C)c2F)C3)[nH]1
Readout Name: IC50
Val: < 50 nM
--
Smiles Notation: COc1ncc(Cl)cc1S(=O)(=O)Nc1ccc(F)c(-c2cn3cnc(C(=O)Nc4cnn(C)c4)c3cn2)c1F
Readout Name: IC50
Val: < 50 nM
--
Smiles Notation: COc1ncc(C#N)cc1S(=O)(=O)Nc1ccc(F)c(-c2cn3cnc(-c4nc5ccccc5[nH]4)c3cn2)c1F
Readout Name: IC50
Val: < 50 nM
